pIC50: −log10 of the molar value.
Collected pIC50 for SYK kinase (Homo sapiens) across several studies; compounds listed below.
endpoint-name: pIC50

(A) COc1cc(Nc2cc(Oc3ccc(NC(=O)Nc4cc(C(C)(C)C)cc(CNC(C)=O)c4OC)c4ccccc34)ccn2)cc(C(=O)NCCN2CC[S+]([O-])CC2)c1
(B) COc1ccc(-c2cc3nccnc3c(O[C@@H]3CCOC3)n2)cc1OC
### Prompt Quick one: lower pIC50, A or B ? Write the label of whichever entry you select.
### Response B
(B: 7.04, A: 7.59)

(A) CC(C)(C)c1ccc(-c2cc3nccnc3c(OC[C@@H]3CN(C(N)=O)CCO3)n2)cc1
(B) CON=C1CCN(c2ccc(Nc3nc(-c4cnc5c(c4)NCCO5)cn4ccnc34)cc2OC)CC1
### Prompt Param pair: A , B . Output: the one whose pIC50 is numerically greater. # reply format: chosen label
### Response B

(I) COc1cc(Nc2cc(Oc3ccc(NC(=O)Nc4cc(C(C)(C)C)cc(S(C)(=O)=O)c4OC)c4ccccc34)ccn2)cc(C(=O)NCCN2CCOCC2)c1
(II) COc1cc(Nc2nccc(Oc3ccc(NC(=O)Nc4cc(C(C)(C)C)cc(NS(C)(=O)=O)c4OC)c4ccccc34)n2)cc(S(=O)(=O)C2CC2)c1
### Prompt Of I versus II , which is the one with smaller reported pIC50? Pick one and reply with its label.
### Response II
(II: 5.93, I: 6.23)

---

Compiled literature IC50, tested on SYK kinase (Homo sapiens, UniProt P43405).

Please review the following examples before continuing.
Cc1cccc(Nc2nc3c(Nc4cccc(C(F)(F)F)c4)nccn3n2)c1    3000 to 50000 nM
Cc1ccnc(Nc2cccc(-c3cnc(N4CCNC(=O)[C@H]4C)o3)c2)n1    ≤ 100 nM

### Prompt So what IC50 did Fc1cc(Nc2nc(-c3c(F)cccc3F)nc3cn[nH]c23)ccc1N1CCOCC1 get with SYK kinase (Homo sapiens, UniProt P43405)?
### Response 100 to 1000 nM

### Prompt Next compound: COc1c(CC(N)=O)cc(C(C)(C)C)cc1NC(=O)Nc1ccc(Oc2ccnc(NCc3ccccn3)c2)c2ccccc12
### Response > 1650 nM

### Prompt Next entry: COc1ccc2nc(Nc3cnn(C4CCCOC4)c3)c3n[nH]cc3c2c1 (centres unmarked)
### Response 10 to 100 nM

### Prompt Could you do the same for COc1cc(-c2cc3nccc(-c4csc(N(C)C)n4)c3o2)cc(OC)c1OC , please?
### Response 300 to 3000 nM

### Prompt Note, next up: c1cncc(Oc2cccc(Nc3nccc(-c4nccs4)n3)c2)c1
### Response < 500 nM

### Prompt Try the compound CC1(C)C(=O)Nc2cc(Nc3nc4c(N5CCNC(=O)CC5)nccn4n3)ccc21
### Response < 100 nM

---

Multiple publications report IC50 for SYK kinase (Homo sapiens, UniProt P43405); what follows is a combined list.

COCCOCCOCC[S+]([O-])c1ccc(Nc2cc(Oc3ccc(NC(=O)Nc4cc(C(C)(C)C)cc(NS(C)(=O)=O)c4OC)c4ccccc34)ccn2)cc1OC (centres unmarked)    318 nM

### Prompt For the molecule CC1(C)C(=O)Nc2cc(Nc3nc4c(N5CCC6(CNC(=O)O6)C5)nccn4n3)ccc21 (centres unmarked) , what IC50 is on record?
### Response < 100 nM

### Prompt Let us now turn to COCCS(=O)(=O)N1CCO[C@H](COc2nc(-c3ccc(N4CCOCC4)cc3)cc3nccnc23)C1
### Response 58 nM

### Prompt CC(C)(C)N1CCN(c2ccc(Nc3nc(-c4cocn4)nc4cn[nH]c34)cc2)CC1 ?
### Response 10 to 100 nM

### Prompt Note, next up: c1cncc(-c2cccc(-c3nc(Nc4cnn(C5CCNC5)c4)c4[nH]ncc4n3)c2)c1 (centres unmarked)
### Response 10 to 100 nM

### Prompt Try this molecule too: CC1(C)CCNc2cc(Nc3nc4c(N5CC[C@]6(CNC(=O)C6)C5)nccn4n3)ccc21
### Response 100 to 300 nM

### Prompt And what about the molecule O=C1CSc2ccc(Nc3nc(-c4ccc5cn[nH]c5c4)nc4cn[nH]c34)cc2N1 ?
### Response 100 to 1000 nM

### Prompt Another: C[C@@H]1COCCN1c1ccc(Nc2cc3c(F)c(-c4cc[nH]n4)ccc3n(C)c2=O)nc1
### Response 923 nM
